Hey, just so you know, these numbers are from paper PMC9371974.

target: mPrP immobilized on the SPR sensor chip (rmPrP) (Mus musculus, UniProt P04925); experiment: SPR; conditions: both partners purified
Sequence (P04925 23-230): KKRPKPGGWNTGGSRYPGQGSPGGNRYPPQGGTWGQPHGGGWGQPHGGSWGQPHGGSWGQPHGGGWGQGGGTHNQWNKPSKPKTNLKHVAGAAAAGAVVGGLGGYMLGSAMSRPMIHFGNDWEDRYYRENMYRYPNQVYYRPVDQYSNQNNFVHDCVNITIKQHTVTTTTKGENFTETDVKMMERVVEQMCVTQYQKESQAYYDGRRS
Kindly state pKd for each of the entries shown.
On this scale, pKd is minus log10 of a concentration expressed in M (mol/L).

// recorded pKd for POM1 scFv pomolog hcY101A (scFv, V domains shown) VH: QVQLQQSGTELVMPGASVKMSCKASGYTFTDYWMHWVKQRPGQGLEWIGSIDPSDSYTSHNEKFKGKATLTVDESSSTAYMQLSSLTSEDSAVYFCSRSGAGYYAMEYWGQGTSVTVSS VL: DIVLTQSPAILSVSPGERVSFSCRASQNIGTSIHWYQQRTNESPRLIIKYASESISGIPSRFSGSGSGTDFTLSINSVESEDIADYYCQQSNTWPYTFGGGTKLELK : 7.94

// recorded pKd for POM1 scFv pomolog lcY96A (scFv, V domains shown) VH: QVQLQQSGTELVMPGASVKMSCKASGYTFTDYWMHWVKQRPGQGLEWIGSIDPSDSYTSHNEKFKGKATLTVDESSSTAYMQLSSLTSEDSAVYFCSRSGYGYYAMEYWGQGTSVTVSS VL: DIVLTQSPAILSVSPGERVSFSCRASQNIGTSIHWYQQRTNESPRLIIKYASESISGIPSRFSGSGSGTDFTLSINSVESEDIADYYCQQSNTWPATFGGGTKLELK : 6.91
